# MEASUREMENT_TARGET: AXL (Homo sapiens)
# Sequence (P30530 26-894): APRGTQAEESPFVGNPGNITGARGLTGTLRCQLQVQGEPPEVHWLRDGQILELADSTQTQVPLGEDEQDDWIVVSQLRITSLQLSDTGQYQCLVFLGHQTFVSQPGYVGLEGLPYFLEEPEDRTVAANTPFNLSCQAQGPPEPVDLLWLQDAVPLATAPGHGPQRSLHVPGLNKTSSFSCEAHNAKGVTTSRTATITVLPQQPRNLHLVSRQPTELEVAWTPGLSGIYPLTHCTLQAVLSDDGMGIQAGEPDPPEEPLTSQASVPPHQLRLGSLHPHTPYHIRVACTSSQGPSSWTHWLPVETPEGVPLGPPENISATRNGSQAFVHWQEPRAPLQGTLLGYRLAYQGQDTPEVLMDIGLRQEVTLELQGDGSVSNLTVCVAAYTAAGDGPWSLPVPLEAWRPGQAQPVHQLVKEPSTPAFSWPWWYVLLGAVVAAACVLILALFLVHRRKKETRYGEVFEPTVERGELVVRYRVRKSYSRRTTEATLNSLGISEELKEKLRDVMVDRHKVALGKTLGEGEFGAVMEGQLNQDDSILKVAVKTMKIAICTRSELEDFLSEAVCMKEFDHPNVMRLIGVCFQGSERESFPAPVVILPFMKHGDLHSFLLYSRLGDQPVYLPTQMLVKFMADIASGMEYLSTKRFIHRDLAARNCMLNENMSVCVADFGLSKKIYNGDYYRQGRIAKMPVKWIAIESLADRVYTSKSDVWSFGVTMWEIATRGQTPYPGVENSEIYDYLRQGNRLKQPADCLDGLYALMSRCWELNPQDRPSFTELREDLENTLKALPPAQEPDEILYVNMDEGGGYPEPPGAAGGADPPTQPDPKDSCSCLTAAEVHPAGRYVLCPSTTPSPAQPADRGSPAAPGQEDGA
# EXPERIMENT_SUMMARY: Enzymatic kinase assay (ADP-Glo), AXL
# Format: biochemical
# MEASUREMENT_SETUP: Table 1; poly (Glu4, Tyr1) substrate, 60 min room temperature, ADP-GLO luminescence
pIC50: −log10 of the molar value.
MEASUREMENT_TYPE: pIC50

Observed pIC50 on AXL (Homo sapiens), entry CC(C)c1c(Oc2ccc(NC(=O)c3cn(C(C)C)c(=O)n(-c4ccc(F)cc4)c3=O)cc2F)ccnc1N [Example 8] , equals > 8.00
